biological target: HIV Env, isolate CNE17 (HIV); assay: cell-based or functional assay

binder	IC80 (µg/ml) with constrains (µg/mL)
ePGDM13 (antibody, V domains shown) VH: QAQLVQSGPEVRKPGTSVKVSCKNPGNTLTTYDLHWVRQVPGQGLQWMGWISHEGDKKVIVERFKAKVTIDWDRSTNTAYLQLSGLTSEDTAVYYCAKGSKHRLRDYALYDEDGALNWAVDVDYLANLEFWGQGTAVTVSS VL: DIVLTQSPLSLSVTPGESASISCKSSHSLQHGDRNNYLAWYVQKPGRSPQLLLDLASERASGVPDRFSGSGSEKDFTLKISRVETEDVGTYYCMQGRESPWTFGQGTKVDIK	0.031
